Sourced from the supplement of paper PMC8617591

# Tested on: Mycobacterium tuberculosis Erdman (autoluminescent)
# assay-remarks: GRinf, maximum normalised growth rate inhibition (unitless (-1 to 1)); higher = less effect (negative = killing)
# test-settings: in vitro model: acidic pH 5.7; time point: constant (~7 days, model-specific)
property-measured: GRinf
Answer with a number only.

Input line: Given the entry NC(=O)c1cnccn1 [pyrazinamide] , what GRinf was observed with Mycobacterium tuberculosis Erdman (autoluminescent)?
Output line: -0.0384

Input line: Given the entry CC[C@@H](CO)NCCN[C@@H](CC)CO , what GRinf was observed with Mycobacterium tuberculosis Erdman (autoluminescent)?
Output line: -0.121

Input line: Given the entry CO[C@H]1/C=C/O[C@@]2(C)Oc3c(C)c(O)c4c(O)c(c(/C=N/N5CCN(C6CCCC6)CC5)c(O)c4c3C2=O)NC(=O)/C(C)=C\C=C\[C@H](C)[C@H](O)[C@@H](C)[C@@H](O)[C@@H](C)[C@H](OC(C)=O)[C@@H]1C , what GRinf was observed with Mycobacterium tuberculosis Erdman (autoluminescent)?
Output line: -0.0781

Input line: Given the entry COc1nc2ccc(Br)cc2cc1[C@@H](c1ccccc1)[C@@](O)(CCN(C)C)c1cccc2ccccc12 , what GRinf was observed with Mycobacterium tuberculosis Erdman (autoluminescent)?
Output line: -0.617

====

# Test system: Mycobacterium tuberculosis Erdman (autoluminescent)
# assay-remarks: total FIC50 (Loewe) at 50% inhibition, three-drug combination (log2); higher = more antagonistic
# test-settings: in vitro model: dormancy (butyrate + nitrate, low O2); time point: terminal (~4-5 doublings, model-specific)
property-measured: total FIC50
Answer with a number only.

Input line: For the compound shown here, CC(C)/N=c1\cc2n(-c3ccc(Cl)cc3)c3ccccc3nc-2cc1Nc1ccc(Cl)cc1 [clofazimine] + NNC(=O)c1ccncc1 [isoniazid] + NC(=O)c1cnccn1 [pyrazinamide] , give the reported total FIC50.
Output line: -0.286

Input line: For the compound shown here, CC(C)/N=c1\cc2n(-c3ccc(Cl)cc3)c3ccccc3nc-2cc1Nc1ccc(Cl)cc1 [clofazimine] + NNC(=O)c1ccncc1 [isoniazid] + CO[C@H]1/C=C/O[C@@]2(C)Oc3c(C)c(O)c4c(O)c(c(/C=N/N5CCN(C)CC5)c(O)c4c3C2=O)NC(=O)/C(C)=C\C=C\[C@H](C)[C@H](O)[C@@H](C)[C@@H](O)[C@@H](C)[C@H](OC(C)=O)[C@@H]1C [rifampicin] , give the reported total FIC50.
Output line: -0.403

Input line: For the compound shown here, COc1nc2ccc(Br)cc2cc1[C@@H](c1ccccc1)[C@@](O)(CCN(C)C)c1cccc2ccccc12 [bedaquiline] + CC(C)/N=c1\cc2n(-c3ccc(Cl)cc3)c3ccccc3nc-2cc1Nc1ccc(Cl)cc1 [clofazimine] + COc1c(N2C[C@@H]3CCCN[C@@H]3C2)c(F)cc2c(=O)c(C(=O)O)cn(C3CC3)c12 [moxifloxacin] , give the reported total FIC50.
Output line: -0.168

====

# System: Mycobacterium tuberculosis Erdman (autoluminescent)
# assay-remarks: total FIC90 (Loewe) at 90% inhibition, three-drug combination (log2); higher = more antagonistic
# test-settings: in vitro model: cholesterol-high 0.2 mM; time point: constant (~7 days, model-specific)
total FIC90 of 0.1 or higher: Condition met. Under 0.1: Condition not met.

Input line: Form field: total FIC90 at least 0.1? Entry: CC(=O)NC[C@H]1CN(c2ccc(N3CCOCC3)c(F)c2)C(=O)O1 [linezolid] + O=[N+]([O-])c1cn2c(n1)OC[C@@H](OCc1ccc(OC(F)(F)F)cc1)C2 [pretomanid] + CO[C@H]1/C=C/O[C@@]2(C)Oc3c(C)c(O)c4c(O)c(c(/C=N/N5CCN(C)CC5)c(O)c4c3C2=O)NC(=O)/C(C)=C\C=C\[C@H](C)[C@H](O)[C@@H](C)[C@@H](O)[C@@H](C)[C@H](OC(C)=O)[C@@H]1C [rifampicin]
Output line: Condition met

Input line: Form field: total FIC90 at least 0.1? Entry: COc1nc2ccc(Br)cc2cc1[C@@H](c1ccccc1)[C@@](O)(CCN(C)C)c1cccc2ccccc12 [bedaquiline] + CC(C)/N=c1\cc2n(-c3ccc(Cl)cc3)c3ccccc3nc-2cc1Nc1ccc(Cl)cc1 [clofazimine] + NNC(=O)c1ccncc1 [isoniazid]
Output line: Condition met

Input line: Form field: total FIC90 at least 0.1? Entry: COc1nc2ccc(Br)cc2cc1[C@@H](c1ccccc1)[C@@](O)(CCN(C)C)c1cccc2ccccc12 [bedaquiline] + CC(C)/N=c1\cc2n(-c3ccc(Cl)cc3)c3ccccc3nc-2cc1Nc1ccc(Cl)cc1 [clofazimine] + CO[C@H]1/C=C/O[C@@]2(C)Oc3c(C)c(O)c4c(O)c(c(/C=N/N5CCN(C6CCCC6)CC5)c(O)c4c3C2=O)NC(=O)/C(C)=C\C=C\[C@H](C)[C@H](O)[C@@H](C)[C@@H](O)[C@@H](C)[C@H](OC(C)=O)[C@@H]1C [rifapentine]
Output line: Condition not met

Input line: Form field: total FIC90 at least 0.1? Entry: COc1nc2ccc(Br)cc2cc1[C@@H](c1ccccc1)[C@@](O)(CCN(C)C)c1cccc2ccccc12 [bedaquiline] + COc1c(N2C[C@@H]3CCCN[C@@H]3C2)c(F)cc2c(=O)c(C(=O)O)cn(C3CC3)c12 [moxifloxacin] + CO[C@H]1/C=C/O[C@@]2(C)Oc3c(C)c(O)c4c(O)c(c(/C=N/N5CCN(C6CCCC6)CC5)c(O)c4c3C2=O)NC(=O)/C(C)=C\C=C\[C@H](C)[C@H](O)[C@@H](C)[C@@H](O)[C@@H](C)[C@H](OC(C)=O)[C@@H]1C [rifapentine]
Output line: Condition met

Input line: Form field: total FIC90 at least 0.1? Entry: CC(=O)NC[C@H]1CN(c2ccc(N3CCOCC3)c(F)c2)C(=O)O1 [linezolid] + O=[N+]([O-])c1cn2c(n1)OC[C@@H](OCc1ccc(OC(F)(F)F)cc1)C2 [pretomanid] + CO[C@H]1/C=C/O[C@@]2(C)Oc3c(C)c(O)c4c(O)c(c(/C=N/N5CCN(C6CCCC6)CC5)c(O)c4c3C2=O)NC(=O)/C(C)=C\C=C\[C@H](C)[C@H](O)[C@@H](C)[C@@H](O)[C@@H](C)[C@H](OC(C)=O)[C@@H]1C [rifapentine]
Output line: Condition met

Input line: Form field: total FIC90 at least 0.1? Entry: CC(=O)NC[C@H]1CN(c2ccc(N3CCOCC3)c(F)c2)C(=O)O1 [linezolid] + COc1c(N2C[C@@H]3CCCN[C@@H]3C2)c(F)cc2c(=O)c(C(=O)O)cn(C3CC3)c12 [moxifloxacin] + CO[C@H]1/C=C/O[C@@]2(C)Oc3c(C)c(O)c4c(O)c(c(/C=N/N5CCN(C)CC5)c(O)c4c3C2=O)NC(=O)/C(C)=C\C=C\[C@H](C)[C@H](O)[C@@H](C)[C@@H](O)[C@@H](C)[C@H](OC(C)=O)[C@@H]1C [rifampicin]
Output line: Condition not met

Input line: Form field: total FIC90 at least 0.1? Entry: CC(C)/N=c1\cc2n(-c3ccc(Cl)cc3)c3ccccc3nc-2cc1Nc1ccc(Cl)cc1 [clofazimine] + COc1c(N2C[C@@H]3CCCN[C@@H]3C2)c(F)cc2c(=O)c(C(=O)O)cn(C3CC3)c12 [moxifloxacin] + CO[C@H]1/C=C/O[C@@]2(C)Oc3c(C)c(O)c4c(O)c(c(/C=N/N5CCN(C6CCCC6)CC5)c(O)c4c3C2=O)NC(=O)/C(C)=C\C=C\[C@H](C)[C@H](O)[C@@H](C)[C@@H](O)[C@@H](C)[C@H](OC(C)=O)[C@@H]1C [rifapentine]
Output line: Condition met

Input line: Form field: total FIC90 at least 0.1? Entry: CC(C)/N=c1\cc2n(-c3ccc(Cl)cc3)c3ccccc3nc-2cc1Nc1ccc(Cl)cc1 [clofazimine] + CC(=O)NC[C@H]1CN(c2ccc(N3CCOCC3)c(F)c2)C(=O)O1 [linezolid] + COc1c(N2C[C@@H]3CCCN[C@@H]3C2)c(F)cc2c(=O)c(C(=O)O)cn(C3CC3)c12 [moxifloxacin]
Output line: Condition met

Input line: Form field: total FIC90 at least 0.1? Entry: CC(C)/N=c1\cc2n(-c3ccc(Cl)cc3)c3ccccc3nc-2cc1Nc1ccc(Cl)cc1 [clofazimine] + CC(=O)NC[C@H]1CN(c2ccc(N3CCOCC3)c(F)c2)C(=O)O1 [linezolid] + O=[N+]([O-])c1cn2c(n1)OC[C@@H](OCc1ccc(OC(F)(F)F)cc1)C2 [pretomanid]
Output line: Condition met

Input line: Form field: total FIC90 at least 0.1? Entry: COc1nc2ccc(Br)cc2cc1[C@@H](c1ccccc1)[C@@](O)(CCN(C)C)c1cccc2ccccc12 [bedaquiline] + CC(C)/N=c1\cc2n(-c3ccc(Cl)cc3)c3ccccc3nc-2cc1Nc1ccc(Cl)cc1 [clofazimine] + COc1c(N2C[C@@H]3CCCN[C@@H]3C2)c(F)cc2c(=O)c(C(=O)O)cn(C3CC3)c12 [moxifloxacin]
Output line: Condition met
